Listed next: entries and their corresponding composite z-score.
test: small-molecule microarray binders of probe aEGFR, primary screen, biochemical, biotinylated probe, 635/667 nm fluorescence (AID 1097); details: higher = more signal;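 also: probe is a biotinylated anti-EGFR antibody binding compounds printed on slides; score combines fluorescence near 667 nm and signal to noise of each spot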
Answer using only a numeral; do not append any unit.

Observe how each entry below is paired with its result.
Molecule	composite z-score
O=C1c2ccccc2[C@@]2(Cc3ccccc3N(CC(F)(F)F)C2=O)[C@H](c2ccc(CO)cc2)N1Cc1ccccc1Cl	-0.118
C=CCNC(=O)[C@H]1[C@@H]2C(=O)O[C@@H](c3ccccc3)[C@@H](c3ccccc3)N2[C@@H](c2ccc(OCCO)cc2)[C@]12C(=O)Nc1ccc(C#CC3=CCCCC3)cc12	-0.147
COC(=O)c1c(CC[C@@H](CO)NC(=O)N2CCC[C@H]2Cn2cc(-c3ccccn3)nn2)oc(C(C)=O)c1C(=O)OC	-0.13
NC(=O)[C@@H]1[C@H]2C(=O)O[C@H](c3ccccc3)[C@H](c3ccccc3)N2[C@H](c2ccc(O)cc2)[C@@]12C(=O)Nc1ccc(C#CC3(O)CCCCCC3)cc12	-0.178
CN(C)C(=O)[C@@]1(Cc2ccccc2CN=[N+]=[N-])N=C(c2ccc(OCCCO)cc2)O[C@H]1c1ccccc1	-0.0356
O=C1OCCC/C=C\[C@H]2OC34C=CCN(Cn5nnc6ccccc65)C(=O)[C@H]3N(CCCCCCO)C(=O)[C@@H]4C12 (some centres undefined)	-0.224
C=CC[C@@]1(C(=O)N(C)C)N=C(c2ccc(OCCCO)cc2)O[C@@H]1c1ccccc1N=[N+]=[N-]	0.276
CC(C)C[C@@H]1NC(=O)[C@H]2C[C@@H](C(=O)NCCCCCCN)[C@@H](c3ccc(O)cc3)N2C1=O	0.125

For the molecule `COCCOC(=O)N1C(=O)[C@@]2(c3ccccc31)[C@H](c1ccc(O)cc1)N1[C@H](c3ccccc3)[C@H](c3ccccc3)OC(=O)[C@H]1[C@@H]2C(=O)NC[C@H](O)c1ccccc1` , give its reported composite z-score.
-0.165

----------
assay: Plasmodium falciparum growth inhibition, primary screen, strain 3D7, DAPI fluorescence, 100 nL (AID 1184);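 also: parasites grown inside human red blood cells in medium with human serum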; settings: P. falciparum 3D7 growth, 3 d, higher = more signal
Quantity: z-score
Answer using only a numeral; do not append any unit.

Observe how each entry below is paired with its result.
Compound	Quantity	Reported
CN1C(=O)C2C=CC(C(O)c3ccccc3)N(Nc3ccccc3)C2C1=O (configuration not stated)	z-score	-0.206
O=C1OCC=C[C@H]2OC34C=CCN(c5ccc6ccccc6c5)C(=O)[C@H]3N(CCCCCCO)C(=O)[C@@H]4[C@@H]12 (some centres not stated)	z-score	-0.341
CCCC[C@H]1OB(O)C[C@H]2C1=C(COc1ccccc1)C[C@H]1C(=O)N(C)C(=O)[C@H]12	z-score	1.68

For the compound `O=C1O[C@H](c2ccccc2)[C@H](c2ccccc2)N2[C@H]1[C@@H](C(=O)Nc1nc3ccccc3s1)[C@]1(C(=O)Nc3ccc(C#CCCO)cc31)[C@H]2c1ccc(OCCO)cc1` , give its reported z-score.
-1.19

For the compound `[N-]=[N+]=NCc1ccccc1C[C@]1(C(=O)N2CCOCC2)N=C(c2ccc(OCCCO)cc2)O[C@H]1c1ccccc1N=[N+]=[N-]` , give its reported z-score.
-2.6

For the compound CC(C)c1ccc(NN2C(C(O)C(c3ccccc3)c3ccccc3)C=CC3C(=O)N(c4ccccc4)C(=O)C32)cc1 (configuration not stated) , give its reported z-score.
-0.536

For the compound `CC(C)OC(=O)C=C1C[C@@H](c2ccccc2C(F)(F)F)O[C@@H](c2ccccc2C(F)(F)F)O1` , give its reported z-score.
-1.82

For the compound `COC(=O)[C@@]1(Cc2ccc(OC)cc2)[C@H]2c3cc(C(=O)N4CCCC4)n(Cc4ccccc4)c3C[C@H]2CN1C(=O)c1ccccc1` , give its reported z-score.
-1.5

For the compound `COCCCN1C(=O)[C@@]2(c3ccc([N+](=O)[O-])cc3)CC(=O)N(C3CCCCC3)[C@@H]2c2ccc(CO)cc21` , give its reported z-score.
-0.599

For the compound `COCCOC(=O)N1C(=O)[C@@]2(c3cc(C#Cc4ccc(OC)cc4)ccc31)[C@H](C(N)=O)[C@H]1C(=O)O[C@H](c3ccccc3)[C@H](c3ccccc3)N1[C@@H]2c1ccccc1OCCO` , give its reported z-score.
-2.04

For the compound `CCOC(=O)C=Cc1cc([N+](=O)[O-])ccc1O` , give its reported z-score.
-1.14

----------
experiment: PSAC antagonists in infected red cells, primary screen, cell-based, P. falciparum Indochina, OD700, 18 h (AID 1157); conditions: P. falciparum Indochina infected erythrocytes, osmotic lysis OD700, 18 h; higher = more signal, called active from +8 up or from −8 down
Activity calls are given as the source filed them.
Quantity: z-score

Molecule	z-score
CCOC(=O)C[C@H]1[C@H](OC(=O)Cc2ccc3c(c2)OCO3)[C@@H](NC(=O)c2ccc(-c3ccccc3)cc2)c2cc(OCCCO)ccc2N1C(=O)c1ccc2ccccc2n1	-0.258 (inactive)
CC(C)C[C@H]1NC(=O)[C@@]23C(=O)N[C@@H](Cc4ccccc4)C2[C@H](C)[C@@]2(C)O[C@H]2C3/C=C/C/C=C\CNC(=O)[C@H](Cc2ccccc2)NC1=O (stereo not given in full)	0.207 (inactive)

For the molecule `CC(=O)N1Cc2ccccc2C[C@@]2(COC(c3ccc(OCCCO)cc3)=N2)C1=O` , give its reported z-score.
1.7 (inactive)

For the molecule `Cc1ccc(S[C@]2(C(=O)NCCN3CCOCC3)CC(=O)N(Cc3ccccc3)[C@@H]2c2ccc(CO)cc2I)cc1` , give its reported z-score.
-1.19 (inactive)

For the molecule `CN(C)C(=O)[C@]1(Cc2ccccc2N=[N+]=[N-])N=C(c2ccc(OCCCO)cc2)O[C@@H]1c1ccccc1` , give its reported z-score.
2.53 (inactive)

----------
target: Focal adhesion kinase 1 (Homo sapiens); assay: small-molecule microarray binders of FAK, primary screen, biochemical, 635/667 nm fluorescence, BSA, DTT (AID 1130); details: PTK2 binding, 635 nm fluorescence, higher = more signal;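 also: composite of spot emission at 667 nm and signal to noise over triplicate slides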
Quantity: composite z-score
Answer using only a numeral; do not append any unit.

Observe how each entry below is paired with its result.
Compound	composite z-score
CCOC(=O)[C@H]1CC=C2CC1C(=O)N1CCC[C@@H]1[C@@H]2O[Si](C)(C)C(C)(C)C (some centres not stated)	-0.173
COc1ccc([Si](C)(C)[C@H]2[C@H](CCO)O[C@@]3(C(=O)N(C)c4c(Br)cc(C)cc43)[C@@H]2C)cc1	0.295
O=C1OCC=C[C@H]2OC34C=CCN(c5ccc6ccccc6c5)C(=O)[C@H]3N(CCCCCCO)C(=O)[C@@H]4[C@@H]12 (some centres not stated)	0.806
COc1ccc(C(O)C2C=CC3C(=O)N(c4ccccc4)C(=O)C3N2Nc2ccccc2F)cc1OCc1ccccc1 (configuration not stated)	1.37
COc1cc2c(cc1OC)CN(C(=O)[C@H]1[C@@H]3C(=O)O[C@@H](c4ccccc4)[C@@H](c4ccccc4)N3[C@@H](c3ccc(O)cc3)[C@]13C(=O)Nc1ccc(C#CCNC(N)=O)cc13)CC2	0.0099
CC(C)C(CO)N1C(=O)[C@@H]2[C@H]3C(=O)OCC=C[C@H]3OC23C=CCN(C(C)C)C(=O)[C@@H]13 (some centres not stated)	0.0732

Here's the next entry for you.
For the compound `C=CCOC(=O)[C@H]1[C@@H]2C(=O)O[C@@H](c3ccccc3)[C@@H](c3ccccc3)N2[C@@H](c2ccc(OCCOC(=O)[C@H]3C[C@H]4C(=O)N5CCC[C@H]5C(=O)N4[C@H]3c3ccc(O)cc3)cc2)[C@]12C(=O)Nc1ccc(I)cc12` , give its reported composite z-score.
-0.0378

----------
assay: COS7 lysate on small-molecule microarray, probe aHis, 635 nm (AID 1123); conditions: COS7 cell lysate, fluorescence, higher = more signal;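 also: z-score combines 667nm fluorescence intensity with signal-to-noise per printed compound spot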
Listed next: entries and their corresponding composite z-score.

Compound	composite z-score
CC(C)(C)OC(=O)CC[C@]1(C(=O)NCC(O)CO)COC(c2ccc(OCCCO)cc2)=N1 (stereo partly drawn)	2.68
CCOC(=O)C[C@H]1[C@H](OC(=O)Cc2ccc3c(c2)OCO3)[C@@H](NC(=O)c2ccc(-c3ccccc3)cc2)c2cc(OCCCO)ccc2N1C(=O)Cc1ccc(OC)cc1	0.365

For the compound `COC(=O)C(CC#Cc1ccc2c(c1)[C@]1(C(=O)N2)[C@H](c2ccc(O)cc2)N2[C@H](c3ccccc3)[C@H](c3ccccc3)OC(=O)[C@H]2[C@@H]1C(=O)Nc1nc2ccccc2s1)C(=O)OC` , give its reported composite z-score.
2.21

----------
tested on: Neuregulin-1 EGF-like domain; test: binders of neuregulin-1 EGF-like domain, primary screen, biochemical, small-molecule microarray, 635 nm fluorescence (AID 1081); settings: small-molecule microarray binding, higher = more signal;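 also: binding of the protein to compounds printed on small-molecule microarray slides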
Classification field. Basis: composite z-score. Definitions: low range = under 0.8, mid range = from 0.8 up to 1, high range = 1 and over

Look over these answered cases.
Compound	Category
Cc1ccc(S[C@]2(C(=O)NC3CC3)CC(=O)N(C3Cc4ccccc4C3)[C@@H]2c2ccc(CO)cc2)cc1	mid range
COCCOC(=O)N1C(=O)[C@@]2(c3cc(C#CC4=CCCCC4)ccc31)[C@H](C(=O)Nc1nc3ccccc3s1)[C@H]1C(=O)O[C@H](c3ccccc3)[C@H](c3ccccc3)N1[C@@H]2c1ccccc1OCCO	high range

Hey, which category is `COCCOC(=O)N1C(=O)[C@@]2(c3cc(C#Cc4ccc(OC)cc4)ccc31)[C@H](C(N)=O)[C@H]1C(=O)O[C@H](c3ccccc3)[C@H](c3ccccc3)N1[C@@H]2c1ccccc1OCCO` in, do you know?
high range

Hey, which category is COc1cc(CO)cc(I)c1O[C@H]1C=C(C(=O)NCCO)C[C@@H](N(CCN2CCOCC2)C(=O)C2CCOC2)[C@@H]1O (stereo partly drawn) in, do you know?
low range

Hey, which category is `COc1ccc(CCNC(=O)[C@@]2(C)c3ccccc3C(=O)N(Cc3cc(F)cc(C(F)(F)F)c3)[C@H]2c2ccc(CO)cc2)cc1` in, do you know?
mid range

This collection of values is drawn from PubChem BioAssay.
